- SYSTEM UNDER TEST: Adrenergic Receptor α2A (ADRA2A) (Homo sapiens)
- Sequence (P08913 whole entry): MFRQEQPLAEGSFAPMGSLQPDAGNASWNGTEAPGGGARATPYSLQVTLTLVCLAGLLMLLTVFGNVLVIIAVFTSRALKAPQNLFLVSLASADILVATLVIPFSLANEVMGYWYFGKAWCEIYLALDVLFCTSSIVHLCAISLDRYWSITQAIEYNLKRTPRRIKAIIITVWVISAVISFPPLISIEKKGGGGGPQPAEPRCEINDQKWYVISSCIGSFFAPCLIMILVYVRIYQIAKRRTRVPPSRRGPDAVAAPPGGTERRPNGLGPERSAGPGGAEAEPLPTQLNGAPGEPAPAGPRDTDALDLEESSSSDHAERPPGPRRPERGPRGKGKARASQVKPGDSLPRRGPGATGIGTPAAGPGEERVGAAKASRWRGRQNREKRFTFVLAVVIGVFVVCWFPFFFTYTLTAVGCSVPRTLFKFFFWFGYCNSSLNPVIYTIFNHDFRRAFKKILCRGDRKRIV
- TEST DETAILS: cAMP assay, ADRA2A
- Type: cell-based
pIC50: −log10 of the molar value. Where a name gives a salt, the structure may show the parent alone.
Exercise: for every item that follows, state its recorded pIC50.

Return reported pIC50. Input compound: CNC(C)C(=O)c1c[nH]c2ccc(F)cc12 (stereo not drawn) [BK-5F-NM-AMT, hydrochloride] < 5.00

Return reported pIC50. Input compound: CNC(C)C(=O)c1c[nH]c2ccc(Cl)cc12 (stereo not drawn) [BK-5Cl-NM-AMT, hydrochloride] < 5.00

Return reported pIC50. Input compound: CNC(C)C(=O)c1c[nH]c2ccc(Br)cc12 (stereo not drawn) [BK-5Br-NM-AMT, hydrochloride] < 5.00
